# Tested on: NCI-H647
# protocol: relative viability (nuclei count vs DMSO), 5 days (fraction); higher = more cells survive
# test_settings: first compound 0.253 µM
Item-by-item account of relative viability

molecule	relative viability
Cc1cnc(-c2cnc(NCCNc3ccc(C#N)cn3)nc2-c2ccc(Cl)cc2Cl)[nH]1 + CC1(C)CCC(c2ccc(Cl)cc2)=C(CN2CCN(c3ccc(C(=O)NS(=O)(=O)c4ccc(N[C@H](CCN5CCOCC5)CSc5ccccc5)c(S(=O)(=O)C(F)(F)F)c4)cc3)CC2)C1 [Navitoclax] (partner 0.5 µM)	0.718
O=c1[nH]c2ccccc2n1C1CCN(CCCC(c2ccc(F)cc2)c2ccc(F)cc2)CC1 [Pimozide] + C[C@@H](Oc1cc(-c2cnn(C3CCNCC3)c2)cnc1N)c1c(Cl)ccc(F)c1Cl [Crizotinib] (partner 1 µM)	1.04

These measurements were taken from the supplement of paper PMC10307832.
